All figures here come from PubChem BioAssay (NCI).

experiment: NCI Yeast Anticancer Drug Screen. Data for the wt2 strain (AID 169);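 note: 0% = growth of vehicle-treated yeast cultures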; details: S. cerevisiae wt2 strain growth inhibition; at 100.0 µM; hits give high values
Compounds without any hit were thinned out: in the full panel of roughly 79,000, 15% have a hit.
value.kind: growth inhibition (%)
Numbers only; they are read as %.

// below: answered molecules
>>> observed_value("Nc1cc(N)c(N=Nc2cccc3c(S(=O)(=O)O)cccc23)cc1N=Nc1cc([N+](=O)[O-])ccc1O")
47
>>> observed_value("O=C(O)CCCC1CCCc2c1ccc1ccccc21 (stereo not given)")
99
>>> observed_value("COC(C(O)CO)C(O)C(O)C(=O)NNc1ccccc1 (stereo not given)")
86
>>> observed_value("CCCCCCC(O)CNCc1ccnc2ccc(OC)cc12 (stereo not given)")
28

Look up growth inhibition: O=c1ccc2ccccc2c2ccccc12
99

---

assay: NCI Yeast Anticancer Drug Screen. Data for the wt1 strain (AID 149);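 note: 0% = growth of vehicle-treated wt1 cultures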; conditions: S. cerevisiae wt1 strain (SPY 50644) growth inhibition; at 11.0 µM
Compounds without any hit were thinned out: in the full panel of roughly 79,000, 15% have a hit. The source made the active and inactive calls. Rule as the data show it: active = growth inhibition above about 70%; inactive = the rest.
Permitted responses: True for active, False for inactive

A selection of reference data follows.
>>> cat("Cc1ccc2c3ccc4c(c3n(C)c2c1)C(=O)C=CC4=O")
"False"
>>> cat("O=c1ccc2ccccc2c2ccccc12")
"True"
>>> cat("CN(C)N=Nc1ccccc1C(=O)NC#N")
"True"

What call does the record list for Nc1ccc(F)cc1S ?
False

What call does the record list for CN1CCN(C(=O)/C=C/C(=O)c2ccccc2)CC1 ?
False

What call does the record list for COc1cc(/C=C2\NC(=O)N(/C=C3\C(=O)Oc4ccccc4C3=O)C2=O)ccc1O ?
False

---

Assay: NCI Yeast Anticancer Drug Screen. Data for the bub3 strain (AID 167)
Settings: S. cerevisiae bub3 mutant strain, at 11.0 µM
Procedure: Growth inhibition of yeast strains with defined genetic alterations is measured as a screen for potential anti-cancer activity. Selected strains with alterations in DNA damage repair or cell cycle control were exposed to compounds and growth inhibition was measured relative to vehicle treated controls. The strain used in this assay is bub3
About 79,000 compounds went through this panel and 15% of them were active in at least one assay; those are over-represented in the sample as a whole. Activity calls are given as the source filed them. Rule as the data show it: active = growth inhibition above about 70%; inactive = the rest.
Permitted responses: active, inactive

A selection of reference data follows.
>>> cat("CCOC(=O)COc1c(OC)cc(C2C3=C(COC3=O)Oc3cc4c(cc32)OCO4)cc1OC (configuration not stated)")
"inactive"
>>> cat("CCOc1ccccc1N=Cc1c2ccccc2cc2ccccc12")
"active"
>>> cat("CCC(C)(C)c1ccc(Oc2cccc(C(=O)O)c2)cc1")
"inactive"
>>> cat("CC1(C)CC(=O)C(/C=N/c2nc(-c3ccccc3)cs2)=C(O)C1")
"inactive"
>>> cat("Nc1n[n+]([O-])c2ccc(Cl)cc2[n+]1[O-]")
"inactive"
>>> cat("O=C1C=C(Cl)C(=O)C(c2ccc(Cl)cc2)=C1")
"inactive"
>>> cat("COc1cc(C2c3cc4c(cc3OC(OC(C)=O)C2C)OCO4)cc(OC)c1OC (configuration not stated)")
"inactive"
>>> cat("O=C(O)c1cc2ccccc2c2c1C(=O)c1ccccc1-2")
"inactive"
>>> cat("N#CNC(N)=Nc1cc2ccccc2c2ccccc12")
"inactive"
>>> cat("Cc1c(C)c(C)c(CSC(=N)N)c(C)c1C")
"inactive"

As a next step, examine the compound that follows.
What call does the record list for NC(=O)C(=O)NNc1ccccc1 ?
inactive
